system.name: T1, human Jagged1 (human, UniProt P78504 34-1218)
T1 construct: whole, on cells
assay.remarks: FMAT, hybridoma supernatant, 293T cells with human Jagged1
value.kind: FL1

Consider the reported FL1 for these binders:
9G8 (antibody, IgG4, V domains shown, Fully human; used for IgG4 rows and where no isotype is printed; also called 9G8 IgG4) VH: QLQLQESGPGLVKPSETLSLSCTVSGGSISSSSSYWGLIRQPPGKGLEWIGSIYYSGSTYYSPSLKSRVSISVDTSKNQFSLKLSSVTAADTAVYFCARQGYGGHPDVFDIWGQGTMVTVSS VL: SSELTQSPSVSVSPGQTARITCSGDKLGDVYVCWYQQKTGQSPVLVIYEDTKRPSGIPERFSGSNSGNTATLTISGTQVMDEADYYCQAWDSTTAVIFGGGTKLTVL: 0
12A1 (antibody, IgG4, V domains shown, Fully human; also used where no isotype is printed) VH: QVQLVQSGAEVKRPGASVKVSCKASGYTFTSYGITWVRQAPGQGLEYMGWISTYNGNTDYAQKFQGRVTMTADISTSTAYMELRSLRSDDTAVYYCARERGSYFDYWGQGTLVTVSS VL: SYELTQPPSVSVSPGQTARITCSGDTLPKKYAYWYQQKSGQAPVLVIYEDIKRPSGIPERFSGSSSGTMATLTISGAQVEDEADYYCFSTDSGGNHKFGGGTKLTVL: 988
21H3 (antibody, IgG4, V domains shown, Fully human; used for IgG4 rows and where no isotype is printed; also called 21H3 IgG4) VH: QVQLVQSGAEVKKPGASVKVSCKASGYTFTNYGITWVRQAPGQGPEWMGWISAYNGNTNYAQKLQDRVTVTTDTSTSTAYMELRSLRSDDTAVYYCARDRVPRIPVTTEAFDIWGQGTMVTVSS VL: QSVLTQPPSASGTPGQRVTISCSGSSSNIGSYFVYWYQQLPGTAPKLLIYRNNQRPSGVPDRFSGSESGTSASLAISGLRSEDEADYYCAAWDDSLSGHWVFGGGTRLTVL: 0
17F3 (antibody, IgG2, V domains shown, Fully human; also used where no isotype is printed) VH: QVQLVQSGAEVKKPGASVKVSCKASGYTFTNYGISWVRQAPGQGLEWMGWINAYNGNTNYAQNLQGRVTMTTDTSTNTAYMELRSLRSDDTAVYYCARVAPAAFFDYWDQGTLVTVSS VL: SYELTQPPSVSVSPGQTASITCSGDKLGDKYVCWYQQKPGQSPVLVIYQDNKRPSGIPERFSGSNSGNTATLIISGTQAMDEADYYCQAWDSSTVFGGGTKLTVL: 1440
4B3 (antibody, IgG4, V domains shown, Fully human; also used where no isotype is printed) VH: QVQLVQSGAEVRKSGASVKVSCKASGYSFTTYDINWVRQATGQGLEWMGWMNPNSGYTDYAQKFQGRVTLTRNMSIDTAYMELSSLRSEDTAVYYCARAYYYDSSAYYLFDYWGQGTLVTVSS VL: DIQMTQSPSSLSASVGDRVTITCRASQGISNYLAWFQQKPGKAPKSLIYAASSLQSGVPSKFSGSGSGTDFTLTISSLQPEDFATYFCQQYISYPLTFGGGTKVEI: 4720

List reported FL1 for each of these binders:
1. 2H10 (antibody, IgG4, V domains shown, Fully human; used for IgG4 rows and where no isotype is printed; also called 2H10 IgG4) VH: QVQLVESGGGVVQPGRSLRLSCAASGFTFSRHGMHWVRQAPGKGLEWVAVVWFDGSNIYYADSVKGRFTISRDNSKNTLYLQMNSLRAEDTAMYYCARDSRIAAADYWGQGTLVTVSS VL: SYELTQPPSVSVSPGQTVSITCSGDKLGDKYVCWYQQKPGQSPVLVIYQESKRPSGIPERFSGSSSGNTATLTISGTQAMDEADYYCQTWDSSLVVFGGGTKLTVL
2. 20G8 (antibody, IgG4, V domains shown, Fully human; also used where no isotype is printed) VH: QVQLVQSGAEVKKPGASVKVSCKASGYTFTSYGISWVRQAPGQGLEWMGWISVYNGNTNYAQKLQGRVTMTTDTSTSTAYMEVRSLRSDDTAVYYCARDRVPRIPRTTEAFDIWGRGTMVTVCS VL: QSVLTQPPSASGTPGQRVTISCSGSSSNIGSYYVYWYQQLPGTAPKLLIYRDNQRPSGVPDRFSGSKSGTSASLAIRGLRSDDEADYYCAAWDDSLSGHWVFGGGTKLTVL
3. 4B4 (antibody, IgG4, V domains shown, Fully human; used for IgG4 rows and where no isotype is printed; also called 4B4 IgG4; 4B4.1) VH: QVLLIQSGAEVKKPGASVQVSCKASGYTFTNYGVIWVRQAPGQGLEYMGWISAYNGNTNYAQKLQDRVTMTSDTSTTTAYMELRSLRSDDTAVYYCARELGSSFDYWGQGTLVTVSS VL: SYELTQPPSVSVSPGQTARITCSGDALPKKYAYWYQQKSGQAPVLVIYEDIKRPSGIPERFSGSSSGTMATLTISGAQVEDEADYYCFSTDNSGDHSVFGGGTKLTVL
4. 3A7 (antibody, IgG4, V domains shown, Fully human; also used where no isotype is printed) VH: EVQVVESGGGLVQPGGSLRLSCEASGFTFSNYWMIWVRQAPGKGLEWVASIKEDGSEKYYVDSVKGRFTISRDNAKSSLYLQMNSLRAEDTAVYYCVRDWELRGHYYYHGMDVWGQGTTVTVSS VL: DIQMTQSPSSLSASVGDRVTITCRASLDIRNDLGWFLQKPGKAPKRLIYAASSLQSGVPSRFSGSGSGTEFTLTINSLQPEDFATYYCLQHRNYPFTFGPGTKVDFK

1. 5030
2. 1500
3. 2590
4. 1940

Give FL1 for all binders that follow.
1. 1E4 (antibody, IgG2, V domains shown, Fully human; also used where no isotype is printed) VH: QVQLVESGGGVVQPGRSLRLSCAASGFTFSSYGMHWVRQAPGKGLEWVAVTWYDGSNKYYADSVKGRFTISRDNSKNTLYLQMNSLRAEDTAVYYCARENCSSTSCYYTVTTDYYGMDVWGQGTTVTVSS VL: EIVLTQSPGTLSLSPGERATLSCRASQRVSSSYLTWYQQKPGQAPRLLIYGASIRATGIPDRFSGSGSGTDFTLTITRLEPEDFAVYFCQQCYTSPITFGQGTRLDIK
2. 1D4 (antibody, IgG4, V domains shown, Fully human XenoMouse antibody; also used where no isotype is printed) VH: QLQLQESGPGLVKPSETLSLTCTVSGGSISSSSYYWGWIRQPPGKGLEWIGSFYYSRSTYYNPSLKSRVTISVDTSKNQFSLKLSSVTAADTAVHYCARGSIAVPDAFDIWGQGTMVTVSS VL: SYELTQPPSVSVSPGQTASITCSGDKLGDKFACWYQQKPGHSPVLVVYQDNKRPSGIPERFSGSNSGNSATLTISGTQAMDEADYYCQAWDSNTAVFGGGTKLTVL

1. 8020
2. 3250
